Origin of values: patent US11311512B2

experiment: Pharmacokinetic study in rats, testosterone plasma concentrations after oral gavage; conditions: testosterone in plasma; oral gavage; conscious carotid artery cannulated SD female rats; normalized to 2 mg/kg equivalent testosterone dose
Tag: TRUE if measured AUC0-24 h is not below 0.3 µM·h, FALSE if it is.

Inquiry: Does CCCCCCCCCCCCCCCC(=O)OCC(COC(=O)CCCCCCCCCCCCCCC)OC(=O)CC(C)CC(=O)O[C@H]1CC[C@H]2[C@@H]3CCC4=CC(=O)CC[C@]4(C)[C@H]3CC[C@]12C (stereo partly shown) have a reported AUC0-24 h of at least 0.3 µM·h?
Reply text: FALSE

* * *

settings: lymphatic transport of total MPA derivatives, male SD rats, intraduodenal infusion
Reported Fold increase (compared with MPA dosed group) values for a set of compounds
// return numeric value only (unit: fold, not printed)

Inquiry: Give the reported value of Fold increase (compared with MPA dosed group) for this record: `CCCCCCCCCCCCCCCC(=O)OCC(COC(=O)CCCCCCCCCCCCCCC)OC(=O)CCCCOC(=O)CC/C(C)=C/Cc1c(O)c2c(c(C)c1OC)COC2=O`
Reply text: 48.9

Inquiry: Give the reported value of Fold increase (compared with MPA dosed group) for this record: CCCCCCCCCCCCCCCC(=O)OCC(COC(=O)CCCCCCCCCCCCCCC)OC(=O)C(C)CCCCOC(=O)CCC(C)=CCc1c(O)c2c(c(C)c1OC)COC2=O (mixture of isomers)
Reply text: 75.0

Inquiry: Give the reported value of Fold increase (compared with MPA dosed group) for this record: `CCCCCCCCCCCCCCCC(=O)OCC(COC(=O)CCCCCCCCCCCCCCC)OC(=O)CCCCCOC(=O)CC/C(C)=C/Cc1c(O)c2c(c(C)c1OC)COC2=O`
Reply text: 57.5

Inquiry: Give the reported value of Fold increase (compared with MPA dosed group) for this record: `CCCCCCCCCCCCCCCC(=O)OCC(COC(=O)CCCCCCCCCCCCCCC)OC(=O)CCCCCCCCCCCCCCCCCCCCOC(=O)CC/C(C)=C/Cc1c(O)c2c(c(C)c1OC)COC2=O`
Reply text: 58.1

Inquiry: Give the reported value of Fold increase (compared with MPA dosed group) for this record: `CCCCCCCCCCCCCCCC(=O)OCC(COC(=O)CCCCCCCCCCCCCCC)OC(=O)CCCCCCCCCCCCCCOC(=O)CC/C(C)=C/Cc1c(O)c2c(c(C)c1OC)COC2=O`
Reply text: 132.0
